ASSAY_OVERVIEW: Pharmacokinetics in uninfected mice
Type: in vivo, mouse
APPLIED_CONDITIONS: male, CD-1, mouse; oral dose of 56 mg/kg SCYX-7158, plasma
OBSERVABLE: Cmax (ng/mL)
Hi! Could you send only the number? It should be in ng/mL, unit omitted.

INSERT INTO measurements (molecular_string, endpoint_value) VALUES
  ('CC(C)(O)c1ccc(NC(=O)c2ccc(F)cc2C(F)(F)F)cc1O', 270);

Proceed to the following item.
Item `CC1(C)OB(O)c2cc(NC(=O)c3ccc(F)cc3C(F)(F)F)ccc21` has what recorded Cmax?
18000

====

TESTED_SYSTEM: CYP1A2 (Homo sapiens)
Sequence (P05177 whole entry): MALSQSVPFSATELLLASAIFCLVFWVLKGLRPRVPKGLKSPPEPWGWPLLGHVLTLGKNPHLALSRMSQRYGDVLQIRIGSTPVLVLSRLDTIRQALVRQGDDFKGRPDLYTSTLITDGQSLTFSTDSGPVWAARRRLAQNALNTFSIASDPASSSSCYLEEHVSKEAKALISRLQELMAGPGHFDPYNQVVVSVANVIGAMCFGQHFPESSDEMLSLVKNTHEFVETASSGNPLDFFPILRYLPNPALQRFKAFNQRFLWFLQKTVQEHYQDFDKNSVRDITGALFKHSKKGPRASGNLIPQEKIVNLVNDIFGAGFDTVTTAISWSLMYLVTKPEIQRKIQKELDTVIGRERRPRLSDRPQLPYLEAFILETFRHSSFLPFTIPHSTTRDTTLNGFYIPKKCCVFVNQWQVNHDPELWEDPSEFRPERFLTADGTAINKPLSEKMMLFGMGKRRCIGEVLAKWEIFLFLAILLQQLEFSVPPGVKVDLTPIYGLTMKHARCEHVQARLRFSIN
ASSAY_OVERVIEW: P450-Glo cytochrome P450 inhibition
APPLIED_CONDITIONS: human recombinant CYP1A2
OBSERVABLE: IC50

INSERT INTO results (compound, tested_system, observable, endpoint_value) VALUES
  ('CC(C)(O)c1ccc(NC(=O)c2ccc(F)cc2C(F)(F)F)cc1O [SCYX-3109]', 'CYP1A2 (Homo sapiens)', 'IC50', '> 100 µM');

Fill in the blank: the reported IC50 of CC1(C)OB(O)c2cc(NC(=O)c3ccc(F)cc3C(F)(F)F)ccc21 [SCYX-7158] is ____.
> 100 µM

====

ASSAY_OVERVIEW: Pharmacokinetics in uninfected rats
Format: in vivo, rat
APPLIED_CONDITIONS: male, Sprague-Dawley, rat, brain/plasma; 25 mg/kg oral; read-out: brain to plasma AUC0–24 h ratio
OBSERVABLE: Kp
Form: value (number only, do not type unit).

I would be grateful if you could share the reported Kp for `CC1(C)OB(O)c2cc(NC(=O)c3ccc(F)cc3C(F)(F)F)ccc21` .
0.44

====

TESTED_SYSTEM: P-glycoprotein (human MDR1) (Homo sapiens, UniProt P08183)
Construct: expressed in transfected cells; host or cells: MDCKII (canine kidney) cells, provided by P. Borst
Sequence (P08183 whole entry): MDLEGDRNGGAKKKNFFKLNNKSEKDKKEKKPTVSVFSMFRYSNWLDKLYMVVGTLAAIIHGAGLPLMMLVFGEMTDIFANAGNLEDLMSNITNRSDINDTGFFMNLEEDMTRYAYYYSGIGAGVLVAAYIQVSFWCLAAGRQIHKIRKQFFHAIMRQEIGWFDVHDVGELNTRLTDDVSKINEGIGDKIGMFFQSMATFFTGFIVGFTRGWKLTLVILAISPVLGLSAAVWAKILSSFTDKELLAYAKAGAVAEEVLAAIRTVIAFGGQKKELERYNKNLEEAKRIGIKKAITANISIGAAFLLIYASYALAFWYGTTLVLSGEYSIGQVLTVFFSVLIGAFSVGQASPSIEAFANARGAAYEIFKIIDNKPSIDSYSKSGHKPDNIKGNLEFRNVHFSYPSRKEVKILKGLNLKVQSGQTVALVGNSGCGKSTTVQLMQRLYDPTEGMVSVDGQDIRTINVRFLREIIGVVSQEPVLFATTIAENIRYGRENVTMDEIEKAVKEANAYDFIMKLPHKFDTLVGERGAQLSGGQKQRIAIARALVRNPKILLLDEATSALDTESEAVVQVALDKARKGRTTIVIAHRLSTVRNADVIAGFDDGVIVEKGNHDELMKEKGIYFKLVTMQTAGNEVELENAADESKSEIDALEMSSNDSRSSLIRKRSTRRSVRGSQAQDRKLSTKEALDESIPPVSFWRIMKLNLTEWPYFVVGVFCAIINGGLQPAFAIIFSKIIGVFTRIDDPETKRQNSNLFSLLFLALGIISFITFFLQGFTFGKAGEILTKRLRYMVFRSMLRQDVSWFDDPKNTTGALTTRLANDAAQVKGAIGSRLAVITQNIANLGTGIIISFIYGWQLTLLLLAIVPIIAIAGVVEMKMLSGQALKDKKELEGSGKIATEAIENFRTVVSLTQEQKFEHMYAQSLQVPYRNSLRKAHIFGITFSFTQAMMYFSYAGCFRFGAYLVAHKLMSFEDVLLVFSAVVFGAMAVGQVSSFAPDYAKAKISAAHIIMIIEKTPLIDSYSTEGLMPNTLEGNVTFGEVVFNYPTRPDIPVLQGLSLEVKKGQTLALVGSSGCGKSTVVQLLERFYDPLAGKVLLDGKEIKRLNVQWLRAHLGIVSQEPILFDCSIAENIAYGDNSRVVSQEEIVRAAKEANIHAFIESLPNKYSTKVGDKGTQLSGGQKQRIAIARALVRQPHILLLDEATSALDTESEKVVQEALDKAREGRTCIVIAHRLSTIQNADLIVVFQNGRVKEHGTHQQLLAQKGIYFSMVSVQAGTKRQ
ASSAY_OVERVIEW: MDCKII-hMDR1 monolayer permeability and P-gp efflux
Assay type: in vitro ADME
APPLIED_CONDITIONS: dog, MDCK-MDR1; apical to basolateral; 3 µM (1.1 µg/mL), 1 h; read-out: Papp A→B
OBSERVABLE: Papp A→B at 1 h, 3 µM (×10⁻⁶ cm/s)
Just the number please, in ×10⁻⁶ cm/s, no unit attached.

Record request: Papp A→B at 1 h, 3 µM value, item `CC1(C)OB(O)c2cc(NC(=O)c3ccc(F)cc3C(F)(F)F)ccc21`
77.6

====

ASSAY_OVERVIEW: Plasma protein binding by rapid equilibrium dialysis
Assay type: in vitro ADME
APPLIED_CONDITIONS: mouse, mouse plasma, 50 µg/mL
OBSERVABLE: fraction unbound at 4 h, 50 µg/mL
Form: value (number only, do not type unit).

Could you share which fraction unbound at 4 h, 50 µg/mL value was measured for `CC1(C)OB(O)c2cc(NC(=O)c3ccc(F)cc3C(F)(F)F)ccc21` ?
0.0463

====

ASSAY_OVERVIEW: Pharmacokinetics in uninfected rats
Type: in vivo, rat
APPLIED_CONDITIONS: male, Sprague-Dawley, rat, plasma; 25 mg/kg oral
OBSERVABLE: CL/F

# query: CL/F of entry `CC1(C)OB(O)c2cc(NC(=O)c3ccc(F)cc3C(F)(F)F)ccc21`
1.53 mL/min/kg
